B1: Azoarcus group I ribozyme (parent)
chain: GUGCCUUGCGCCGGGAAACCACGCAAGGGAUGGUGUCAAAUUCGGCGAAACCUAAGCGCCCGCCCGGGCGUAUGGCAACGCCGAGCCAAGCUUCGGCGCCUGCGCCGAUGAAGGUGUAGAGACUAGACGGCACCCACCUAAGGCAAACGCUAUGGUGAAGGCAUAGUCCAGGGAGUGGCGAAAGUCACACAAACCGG

- Variants of: B1
- methodDescription: reverse-splicing fitness (ratio to wild type); higher = more active; in vitro selection; Mg2+ level not given
readout: reverse-splicing fitness

1. A111U A145C C150G	0.426
2. A111U C150G C169A U176C	0.0111
3. A111U A120U A145C U176C	0.168
4. C82A A111G A120G A145C C150G C169U U176A	0.0129
5. A111G A145U C150U C169U U176G	0.00691
6. C82U A120U C150U U176C	0.0451
7. C82A A111G A145G C150U	0.32
8. C82G A111C A145G C169U U176A	0.0152
9. A111U A145C C150G C169U U176G	0.00557
10. C82G A111U A145C U176G	0.0756
11. C82G A111U A120U A145C C150A	0.00458
12. C82G A111U A145G C169U U176C	0.0155
13. C82G A111U A120G C150G C169G U176C	0.00484
14. C82G A111C A145U C150G C169U	0.00891
15. C82U A120U C150U C169G	0.00457
16. C82U A120C A145G C150A C169A U176A	0.0175
17. A120G A145C C169G U176A	0.202
18. C82G A111U A120G C150A C169U	0.00827
